# Test system: pigweed
# RUN_DESCRIPTION: Test B pre/postemergence pigweed
# Type: in vivo, Amaranthus retroflexus
# ASSAY_CONDITIONS: Preemergence, Rate 62 g/ha; scale of 0 to 10 where 0 is no effect and 10 is complete control
For each record, write down the corresponding Plant response rating, Redroot pigweed.
Answers are plain numbers.

The cases that follow already have their Plant response rating, Redroot pigweed on record.
CC(C)N(C(=O)n1oc(=O)n(CC(=O)C2CC2)c1=O)c1ccc(F)cc1 = 4
CC(C)N(C(=O)n1oc(=O)n(C(C)C#N)c1=O)c1ccc(Cl)cc1 (stereo not shown) = 0
CC(C)N(C(=O)n1oc(=O)n(Cc2cnc(Cl)s2)c1=O)c1ccc(F)cc1 = 0

Read the next record carefully.
Please indicate Plant response rating, Redroot pigweed recorded for `CC(C)N(C(=O)n1oc(=O)n(CC#N)c1=O)c1ccc(Cl)cc1`
0

----------
# System: rape
# RUN_DESCRIPTION: Test B pre/postemergence rape
# Type: in vivo, Brassica napus
# ASSAY_CONDITIONS: Rate 125 g/ha; Preemergence; scale of 0 to 10 where 0 is no effect and 10 is complete control
Answer each item with its documented Rape plant response rating.
One number for each entry.

COCCOCn1c(=O)on(C(=O)N(c2ccc(F)cc2)C(C)C)c1=O = 6
CCC(=O)Cn1c(=O)on(C(=O)N(c2ccc(F)cc2)C(C)C)c1=O = 0
CC(C)N(C(=O)n1oc(=O)n(CCC2CCCCC2)c1=O)c1ccc(F)cc1 = 0

Please look at the following compound next.
Jot down Rape plant response rating (rape) of `Cc1ccccc1-n1c(=O)on(C(=O)N(c2cccc(F)c2)C(C)C)c1=O` .
0

----------
# Tested on: wild oat
# RUN_DESCRIPTION: Test B pre/postemergence wild oat
# Assay type: in vivo, Avena fatua
# ASSAY_CONDITIONS: Rate 62 g/ha, Postemergence; scale 0 to 10, 0 no effect, 10 complete control
READOUT_LABEL: Wild oats plant response rating
Give bare numbers.

Provide reported Wild oats plant response rating for each item, in the same order as listed.
1. CC(C)N(C(=O)n1oc(=O)n(CCl)c1=O)c1ccc(F)cc1F
2. CC(C)N(C(=O)n1oc(=O)n(Cc2cnc(Cl)s2)c1=O)c1ccc(F)cc1
3. CC(C)N(C(=O)n1oc(=O)n(CC(=O)C2CC2)c1=O)c1ccc(F)cc1
4. CC(C)N(C(=O)n1oc(=O)n(CC#N)c1=O)c1ccc(Cl)cc1

1: 0; 2: 0; 3: 0; 4: 0

----------
What Rape plant response rating was measured for each of the following?
# Test system: rape
# RUN_DESCRIPTION: Test B pre/postemergence rape
# Type: in vivo, Brassica napus
# ASSAY_CONDITIONS: Rate 500 g/ha, Postemergence; scale 0 to 10, 0 is no effect, 10 is complete control
One number for each entry.

CC[C@@H](C)n1c(=O)on(C(=O)N(c2ccc(F)cc2F)C(C)C)c1=O = 6
CC(C)N(C(=O)n1oc(=O)n(CC(F)F)c1=O)c1ccc(F)cc1F = 4
COC(=O)C(CCO)n1c(=O)on(C(=O)N(c2ccccc2)C(C)C)c1=O (stereo not shown) = 0

// switching to the query compound
Specify Rape plant response rating for `CC(C)N(C(=O)n1oc(=O)n(CC(F)F)c1=O)c1ccccc1` and stop.
7

----------
# Test system: velvetleaf
# RUN_DESCRIPTION: Test B pre/postemergence velvetleaf
# Type: in vivo, Abutilon theophrasti
# ASSAY_CONDITIONS: Postemergence, Rate 500 g/ha; scale of 0 to 10 where 0 is no effect and 10 is complete control
Please use YES whenever Velvetleaf plant response rating is not below 2, and NO whenever it is.

CC(C)N(C(=O)n1oc(=O)n(CCCC(F)(F)F)c1=O)c1ccc(F)cc1 [Compound 398] = YES
CC(C)N(C(=O)n1oc(=O)n(CCl)c1=O)c1ccc(Cl)cc1 [Compound 422] = NO
COC(C)n1c(=O)on(C(=O)N(c2ccc(F)cc2)C(C)C)c1=O (stereo not shown) [Compound 439] = NO

Is the recorded value of Velvetleaf plant response rating equal to or greater than 2 for this molecule? CC(C)N(C(=O)n1oc(=O)n(C(C)CCl)c1=O)c1ccccc1 (stereo not shown) [Compound 411]
YES

Hi, just wondering whether CC(C)Cn1c(=O)on(C(=O)N(c2ccc(F)cc2F)C(C)C)c1=O [Compound 394] shows Velvetleaf plant response rating of 2 or higher.
YES

Reported Velvetleaf plant response rating at or above 2? C=CC[Si](C)(C)Cn1c(=O)on(C(=O)N(c2ccc(Cl)cc2)C(C)C)c1=O [Compound 414]
NO

----------
Exercise: state measured Rape plant response rating for each of the molecules provided.
# System: rape
# RUN_DESCRIPTION: Test B pre/postemergence rape
# Type: in vivo, Brassica napus
# ASSAY_CONDITIONS: Postemergence, Rate 125 g/ha; scale of 0 to 10 where 0 is no effect and 10 is complete control
Numbers only.

Field: example entries. Status: answers known.
Cc1nn(C)c(Cl)c1-n1c(=O)on(C(=O)N(c2ccc(F)cc2)C(C)C)c1=O = 0
C=C(Cn1c(=O)on(C(=O)N(c2ccccc2)C(C)C)c1=O)C(C)(C)C = 0
CC(C)N(C(=O)n1oc(=O)n(-c2nc(Cl)sc2Cl)c1=O)c1ccc(F)cc1 = 0

Identify measured Rape plant response rating associated with `Cc1ccccc1Cn1c(=O)on(C(=O)N(c2ccc(Cl)cc2)C(C)C)c1=O`
0

----------
Provide the reported Plant response rating, Wheat of each item.
# System: wheat
# RUN_DESCRIPTION: Test B pre/postemergence wheat
# Type: in vivo, Triticum aestivum
# ASSAY_CONDITIONS: Rate 250 g/ha, Postemergence; scale 0 to 10, 0 is no effect, 10 is complete control
Numbers only.

See these solved cases before continuing.
CCOC(=O)Cn1c(=O)on(C(=O)N(c2ccc(F)cc2)C(C)C)c1=O = 0
CC(C)N(C(=O)n1oc(=O)n(C(C)c2ccccc2)c1=O)c1ccc(F)cc1 (stereo not shown) = 0
CCn1c(=O)on(C(=O)N(c2ccc(F)cc2)C(C)C)c1=O = 7
CC(C)N(C(=O)n1oc(=O)n(CCCl)c1=O)c1ccc(F)cc1 = 3
Cc1ccccc1Cn1c(=O)on(C(=O)N(c2ccc(Cl)cc2)C(C)C)c1=O = 0
CC(C)N(C(=O)n1oc(=O)n(-c2cnn(C)c2Cl)c1=O)c1ccccc1 = 0

Shift focus to the following entry.
GET Plant response rating, Wheat | system: wheat | item: `CC(C)N(C(=O)n1oc(=O)n(-c2nc(Cl)sc2Cl)c1=O)c1ccc(F)cc1`
0

----------
# Tested on: blackgrass
# RUN_DESCRIPTION: Test B pre/postemergence blackgrass
# Assay type: in vivo, Alopecurus myosuroides
# ASSAY_CONDITIONS: Preemergence, Rate 250 g/ha; scale 0 to 10, 0 is no effect, 10 is complete control
Assign labels as follows, please: MET for Blackgrass plant response rating below 3; NOT MET for Blackgrass plant response rating equal to or exceeding 3.

Study these solved cases before continuing.
CC(C)N(C(=O)n1oc(=O)n(C(C)C#N)c1=O)c1ccc(Cl)cc1 (stereo not drawn) = MET
Cc1ccccc1-n1c(=O)on(C(=O)N(c2ccc(S(C)(=O)=O)cc2)C(C)C)c1=O = MET
CC(C)N(C(=O)n1oc(=O)n(CCl)c1=O)c1ccc(F)cc1F = MET
CC(C)N(C(=O)n1oc(=O)n(C(C)c2ccccc2)c1=O)c1ccc(F)cc1 (stereo not drawn) = MET
C=C(C)Cn1c(=O)on(C(=O)N(c2ccc(F)cc2)C(C)C)c1=O = NOT MET
CC(C)N(C(=O)n1oc(=O)n(CC(=O)C2CC2)c1=O)c1ccc(F)cc1 = NOT MET

Given the entry `CC(C)N(C(=O)n1oc(=O)n(CC#N)c1=O)c1ccc(Cl)cc1` , would its reported Blackgrass plant response rating be below 3?
MET

Does the reported Blackgrass plant response rating of CC1CCCCC1n1c(=O)on(C(=O)N(c2ccc(F)cc2)C(C)C)c1=O (stereo not drawn) stay below 3?
NOT MET

----------
# Tested on: morningglory
# RUN_DESCRIPTION: Test B pre/postemergence morningglory
# Format: in vivo, Ipomoea hederacea
# ASSAY_CONDITIONS: Postemergence, Rate 125 g/ha; scale 0 to 10, 0 is no effect, 10 is complete control
READOUT_LABEL: Morningglory plant response rating
Numbers only.

C=C(Cn1c(=O)on(C(=O)N(c2ccccc2)C(C)C)c1=O)c1cccnc1 [Compound 498] = 3
CCOCn1c(=O)on(C(=O)N(c2ccc(F)cc2F)C(C)C)c1=O [Compound 504] = 4
CC(C)N(C(=O)n1oc(=O)n(CC[N+](=O)[O-])c1=O)c1ccc(Cl)cc1 [Compound 483] = 0

Return Morningglory plant response rating (reported value) for this compound: CC(=O)OCCCCn1c(=O)on(C(=O)N(c2ccccc2)C(C)C)c1=O [Compound 565]
5

Recorded values, source patent US6737383B1.
